- study-system: recombinant human ALX receptor (Homo sapiens)
- measurement-description: Intracellular calcium measurements (FLIPR), ALX receptor agonistic activity
- condition-context: HEK293-hALXR-Gα16 cells, Fluo-4 calcium signal, normalized to WKYMVm 10 nM
Where a name gives a salt, the structure may show the parent alone.

- compound: "COc1ccc(C[C@@H](NC(=O)N[C@H]2C[C@@H]2c2ccccc2)c2nc3ccccc3[nH]2)cc1 (relative stereo) [Example 16, hydrochloride]"
  EC50: "112 nM"
- compound: "COc1ccc(C[C@@H](NC(=O)N2CCC3CNCC32)c2nc3ccccc3[nH]2)cc1 (stereo partly drawn)"
  EC50: "246 nM"
- compound: "COc1ccc(C[C@@H](NC(=O)NC2(c3ccc(C(F)(F)F)cc3)CC2)c2nc3ccccc3[nH]2)cc1"
  EC50: "176 nM"
- compound: "COc1ccc(C[C@@H](NC(=O)N[C@@H](Cc2ccccc2)C(N)=O)c2nc3ccccc3[nH]2)cc1"
  EC50: "21 nM"
- compound: "COc1cc(F)c(CC(NC(=O)N[C@H]2CC[C@H](O)CC2)c2nc3ccccc3[nH]2)cc1F (relative stereo) [Example 247]"
  EC50: "10 nM"
- compound: "COc1ccc(C[C@@H](NC(=O)NC2CCCC(C)C2)c2nc3ccccc3[nH]2)cc1 (stereo partly drawn)"
  EC50: "130 nM"
- compound: "COc1ccc(C[C@@H](NC(=O)N[C@@H]2CC[C@H](O)C2)c2nc3ccccc3[nH]2)cc1 (relative stereo)"
  EC50: "38 nM"
- compound: "COc1ccc(CC(NC(=O)NC2CCCC2)c2nc3ccccc3[nH]2)cc1F (stereo not drawn)"
  EC50: "209 nM"
- compound: "COc1ccc(C[C@@H](NC(=O)N[C@@H]2CCCC[C@H]2C(N)=O)c2nc3ccccc3[nH]2)cc1 (relative stereo)"
  EC50: "120 nM"
- compound: "COc1ccc(CC(NC(=O)Nc2ccnn2-c2ccc(OC)cc2)c2nc3ccccc3[nH]2)cc1 (stereo not drawn)"
  EC50: "182 nM"
- compound: "COc1ccc(C[C@@H](NC(=O)N[C@H](C)c2ccc(OC)cc2)c2nc3ccccc3[nH]2)cc1"
  EC50: "248 nM"
- compound: "COc1ccc(C[C@@H](NC(=O)Nc2cccc(OC)c2)c2nc3ccccc3[nH]2)cc1"
  EC50: "247 nM"
- compound: "COc1ccc(C[C@@H](NC(=O)NC2CCC(F)(F)CC2)c2nc3ccccc3[nH]2)cc1"
  EC50: "38 nM"
- compound: "COc1ccc(C[C@@H](NC(=O)N2CC3CC2CN3)c2nc3ccccc3[nH]2)cc1 (stereo partly drawn)"
  EC50: "279 nM"
- compound: "COc1ccc(C[C@@H](NC(=O)N[C@H]2CC[C@H](O)CC2)c2nc3cc(Br)ccc3[nH]2)cc1"
  EC50: "1.1 nM"

====

Each entry below lists one item and its recorded pEC50 value.
- study-system: recombinant human ALX receptor (Homo sapiens)
- Sequence (P25090 1-351): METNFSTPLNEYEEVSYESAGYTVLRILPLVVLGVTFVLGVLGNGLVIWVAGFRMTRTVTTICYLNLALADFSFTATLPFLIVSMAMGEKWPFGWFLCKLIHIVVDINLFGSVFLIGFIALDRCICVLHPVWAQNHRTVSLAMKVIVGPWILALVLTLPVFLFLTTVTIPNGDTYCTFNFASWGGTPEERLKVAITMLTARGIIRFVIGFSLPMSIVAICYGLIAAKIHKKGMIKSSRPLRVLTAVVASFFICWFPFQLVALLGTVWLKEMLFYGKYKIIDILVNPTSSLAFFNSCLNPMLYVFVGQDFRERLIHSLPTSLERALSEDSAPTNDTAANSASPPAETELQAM
- measurement-description: Intracellular calcium measurements (FLIPR), ALX receptor agonistic activity
- condition-context: HEK293-hALXR-Gα16 cells, Fluo-4 calcium signal, normalized to WKYMVm 10 nM
pEC50: −log10 of the molar value. Where a name gives a salt, the structure may show the parent alone.
measured-attribute: pEC50

- molecule: "COc1ccc(C[C@@H](NC(=O)NC2(c3cccc(C)c3)CC2)c2nc3ccccc3[nH]2)cc1"
  measured-attribute: "pEC50"
  experimental-result: 6.84
- molecule: "COc1ccc(C[C@@H](NC(=O)NCc2ccnn2-c2ccc(OC)cc2)c2nc3ccccc3[nH]2)cc1"
  measured-attribute: "pEC50"
  experimental-result: 8.12
- molecule: "COc1ccc(C[C@@H](NC(=O)NCCO)c2nc3ccccc3[nH]2)cc1"
  measured-attribute: "pEC50"
  experimental-result: 6.24
- molecule: "COc1ccc(CC(NC(=O)NC23CCC(O)(CC2)CC3)c2nc3ccccc3[nH]2)c(F)c1F (stereo not drawn) [Example 251]"
  measured-attribute: "pEC50"
  experimental-result: 8.18
- molecule: "CC(F)(F)c1ccc(CC(NC(=O)N[C@H]2CC[C@H](O)CC2)c2nc3ccccc3[nH]2)cc1 (relative stereo) [Example 393]"
  measured-attribute: "pEC50"
  experimental-result: 8.41
- molecule: "COc1ccc(C[C@@H](NC(=O)NCc2cccnc2COC(C)C(F)(F)F)c2nc3ccccc3[nH]2)cc1 (stereo partly drawn)"
  measured-attribute: "pEC50"
  experimental-result: 8.68
- molecule: "COc1ccc(CC(NC(=O)NC23CCC(O)(CC2)CC3)c2nc3ccccc3[nH]2)cc1F (stereo not drawn) [Example 193]"
  measured-attribute: "pEC50"
  experimental-result: 8.74
- molecule: "COc1ccc(CC(NC(=O)N[C@H]2CC[C@H](O)CC2)c2nc3ccccc3[nH]2)c(F)c1 (single isomer, unassigned; ent-2) [Example 310]"
  measured-attribute: "pEC50"
  experimental-result: 8.48
- molecule: "COc1ccc(C[C@@H](NC(=O)NC2CCc3cc(OC)c(OC)cc32)c2nc3ccccc3[nH]2)cc1 (stereo partly drawn)"
  measured-attribute: "pEC50"
  experimental-result: 7.59
- molecule: "COc1ccc(C[C@@H](NC(=O)NC2CCCN(CCF)C2)c2nc3ccccc3[nH]2)cc1 (stereo partly drawn)"
  measured-attribute: "pEC50"
  experimental-result: 7.23
- molecule: "COc1ccc(C[C@@H](NC(=O)NC2CCc3ccccc3C2)c2nc3ccccc3[nH]2)cc1 (stereo partly drawn) [Example 15, hydrochloride]"
  measured-attribute: "pEC50"
  experimental-result: 7.23
- molecule: "COc1ccc(CC(NC(=O)NCCc2ccccn2)c2nc3ccccc3[nH]2)cc1 (stereo not drawn)"
  measured-attribute: "pEC50"
  experimental-result: 6.23
- molecule: "COc1ccc(C[C@@H](NC(=O)NCc2nccnc2OCC(F)(F)F)c2nc3ccccc3[nH]2)cc1"
  measured-attribute: "pEC50"
  experimental-result: 7.72
- molecule: "COc1ccc(CC(NC(=O)Nc2ccnn2C(C)(C)C)c2nc3ccccc3[nH]2)cc1 (stereo not drawn)"
  measured-attribute: "pEC50"
  experimental-result: 7.52
- molecule: "COc1ccc(C[C@@H](NC(=O)NCc2cccc(C)c2)c2nc3ccccc3[nH]2)cc1"
  measured-attribute: "pEC50"
  experimental-result: 6.64

Cited source for all entries: patent US9663473B2
